Can you tell me Activity for the items I'm about to list?
# Experimental System: UniProt:Q92731
# Sequence (Q92731 whole entry): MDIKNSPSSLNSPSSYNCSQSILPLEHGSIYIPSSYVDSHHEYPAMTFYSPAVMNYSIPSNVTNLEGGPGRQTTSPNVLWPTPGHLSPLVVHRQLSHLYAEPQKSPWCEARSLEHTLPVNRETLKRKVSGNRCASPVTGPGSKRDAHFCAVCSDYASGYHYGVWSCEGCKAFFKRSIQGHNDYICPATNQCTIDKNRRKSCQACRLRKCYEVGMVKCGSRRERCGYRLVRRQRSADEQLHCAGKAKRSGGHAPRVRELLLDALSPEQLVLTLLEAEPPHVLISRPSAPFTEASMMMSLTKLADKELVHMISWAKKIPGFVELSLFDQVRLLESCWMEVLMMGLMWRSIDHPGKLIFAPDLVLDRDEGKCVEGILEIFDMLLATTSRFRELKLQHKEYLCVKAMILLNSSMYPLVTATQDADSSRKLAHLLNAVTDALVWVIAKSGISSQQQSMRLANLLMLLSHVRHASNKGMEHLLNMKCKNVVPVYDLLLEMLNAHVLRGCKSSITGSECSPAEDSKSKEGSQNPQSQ
# Procedure Details: Agonist activity at human ERbeta expressed in HepG2 cells up to 10^-5 M after 24 hrs by luciferase reporter gene assay relative to E2
# Assay type: functional, cell-based
Answers are plain numbers, in %.

Sample records with Activity:
Compound	Units Symbol	Activity
COc1ccc(OS(=O)(=O)[C@H]2C[C@H]3C(c4ccc(O)c(C)c4)=C(c4ccc(O)c(C)c4)[C@@H]2[S+]3[O-])cc1 (relative stereo)	%	9.8
O=S(=O)(Oc1ccc(O)cc1)[C@H]1C[C@H]2C(c3ccccc3)=C(c3ccccc3)[C@@H]1[S+]2[O-] (relative stereo)	%	0
CCOC(=O)[C@@H]1[C@H](C(=O)OCC)[C@@H]2C(c3ccc(O)cc3)=C(c3ccc(O)cc3)[C@H]1[S+]2[O-] (stereo partly specified)	%	27
O=C1[C@@H]2[C@H](C(=O)N1c1ccccc1)[C@@H]1C(c3ccc(O)cc3)=C(c3ccc(O)cc3)[C@H]2[S+]1[O-] (mixture of isomers)	%	24

# batch size: 2; output Activity per entry
1. Cc1cc(C2=C(c3ccc(O)c(C)c3)[C@H]3[C@@H](S(=O)(=O)Oc4ccccc4Br)C[C@@H]2[S+]3[O-])ccc1O (relative stereo)
2. Cc1cc(C2=C(c3ccc(O)c(C)c3)[C@H]3[C@@H](S(=O)(=O)Oc4ccccc4F)C[C@@H]2[S+]3[O-])ccc1O (relative stereo)

A)
0
0

* * *

# Experimental System: Estrogen receptor (Homo sapiens) (UniProt P03372)
# Sequence (P03372 whole entry): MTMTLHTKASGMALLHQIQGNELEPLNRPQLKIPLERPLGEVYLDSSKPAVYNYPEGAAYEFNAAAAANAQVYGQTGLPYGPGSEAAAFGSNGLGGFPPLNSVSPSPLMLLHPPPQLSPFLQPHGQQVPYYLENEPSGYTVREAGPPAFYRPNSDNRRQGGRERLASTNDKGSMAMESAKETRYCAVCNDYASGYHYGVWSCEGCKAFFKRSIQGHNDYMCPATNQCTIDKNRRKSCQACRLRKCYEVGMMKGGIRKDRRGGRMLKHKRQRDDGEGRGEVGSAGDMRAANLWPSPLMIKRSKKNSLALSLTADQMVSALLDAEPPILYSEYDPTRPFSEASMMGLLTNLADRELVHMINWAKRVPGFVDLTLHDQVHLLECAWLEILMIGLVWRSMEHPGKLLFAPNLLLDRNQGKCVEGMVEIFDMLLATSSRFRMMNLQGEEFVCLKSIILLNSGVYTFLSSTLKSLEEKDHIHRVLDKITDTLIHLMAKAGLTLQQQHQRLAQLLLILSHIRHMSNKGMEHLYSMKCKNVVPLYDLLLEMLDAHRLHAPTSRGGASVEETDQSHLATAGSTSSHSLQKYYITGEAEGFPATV
# Procedure Details: Displacement of [3H]estradiol from human ERalpha after 18 to 24 hrs
Can you tell me RBA for the items I'm about to list?

Sample records with RBA:
Compound	RBA
O=S(=O)(Oc1ccc(O)cc1)[C@H]1C[C@H]2C(c3ccccc3)=C(c3ccccc3)[C@@H]1[S+]2[O-] (relative stereo)	0.005%
Cc1cc(O)ccc1C1=C(c2ccc(O)cc2C)[C@H]2[C@@H](S(=O)(=O)Oc3ccc(O)cc3)C[C@@H]1[S+]2[O-] (relative stereo)	2.21%
O=S(=O)(Oc1ccccc1)[C@H]1C[C@H]2C(c3ccc(O)cc3)=C(c3ccc(O)cc3)[C@@H]1[S+]2[O-] (relative stereo)	0.956%
Cc1cc(C2=C(c3ccc(O)c(C)c3)[C@H]3[C@@H](S(=O)(=O)Oc4ccccc4Br)C[C@@H]2[S+]3[O-])ccc1O (relative stereo)	0.516%
Cc1cc(O)ccc1C1=C(c2ccc(O)cc2C)[C@H]2[C@@H](S(=O)(=O)Oc3ccc(Cl)cc3)C[C@@H]1[S+]2[O-] (relative stereo)	2.13%

Turning now to a further record.
Q) Find the measured RBA: item Cc1cc(O)ccc1C1=C(c2ccc(O)cc2C)[C@H]2[C@H]3C(=O)N(c4ccccc4)C(=O)[C@H]3[C@@H]1[S+]2[O-] (mixture of isomers) , target or system Estrogen receptor (Homo sapiens) (UniProt P03372).
A) 0.016%

* * *

# Experimental System: Estrogen receptor (Homo sapiens, UniProt P03372)
# Sequence (P03372 whole entry): as the sequence (P03372 whole entry) above
Can you tell me pEC50 for the items I'm about to list?
Give bare numbers, as −log10 of the molar value.

Sample records with pEC50:
Molecule	pEC50
Cc1cc(O)ccc1C1=C(c2ccc(O)cc2C)[C@H]2[C@@H](S(=O)(=O)Oc3ccccc3)C[C@@H]1[S+]2[O-] (relative stereo)	9.85
COc1ccc(OS(=O)(=O)[C@H]2C[C@H]3C(c4ccc(O)cc4C)=C(c4ccc(O)cc4C)[C@@H]2[S+]3[O-])cc1 (relative stereo)	6.68

Q) Reported pEC50, molecule Cc1cc(O)ccc1C1=C(c2ccc(O)cc2C)[C@H]2[C@@H](S(=O)(=O)Oc3ccc(Cl)cc3)C[C@@H]1[S+]2[O-] (relative stereo) : ____
A) 6.96
